Documented percent of control (POC) of FACS Geo Mean across a set of binders
study-target: T1, hOrai1-mOrai1 ECL2 (SKPPA) protein (human/mouse chimera, UniProt Q96D31 1-301)
T1 construct: also called Ch
T1 sequence (Q96D31 other isoform, or with tags, fused parts or gaps): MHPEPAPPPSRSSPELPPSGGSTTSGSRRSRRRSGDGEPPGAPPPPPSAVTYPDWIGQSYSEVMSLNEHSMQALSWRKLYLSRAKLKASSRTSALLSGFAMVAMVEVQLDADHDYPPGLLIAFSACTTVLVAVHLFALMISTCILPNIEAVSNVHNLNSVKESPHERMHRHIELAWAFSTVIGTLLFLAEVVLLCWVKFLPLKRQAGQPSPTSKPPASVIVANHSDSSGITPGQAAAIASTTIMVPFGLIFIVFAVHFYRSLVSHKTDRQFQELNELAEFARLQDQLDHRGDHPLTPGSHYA
assay-protocol: FACS, 293EBNA, RFI-POC grade
Design: concentration or dose not given beside the values
metric: percent of control (POC) of FACS Geo Mean

>  <binder>
mAb 5B1.1 (antibody, human IgG2, lambda, V domains shown, fully human IgG2 lambda, Campaign 2; also called mAb 5Bl1.1) VH: QVQLVQSGAEVKKPGASVKVSCKASGYTFTDYYINWVRQAPGQGLEWMGWINPNSGGSSYAQKFQGRVTMTRDTSISTAHMELIRLRSDDTAVYYCARERGGIEDWFDPWGQGTLVTVSS VL: QSVLTQPPSVSGAPGQRVTISCTGSSSNIGAGYDVHWYQQLPGTAPKLLIYGNSNRPSGVPDRFSGSKSGTSASLAITKFQAEDEAVYYCQSYGSGLSGVVFGGGTKLTVLG

>  <value-observed>
5 to 40%

$$$$
>  <binder>
mAb 5A4.2 (antibody, human IgG2, lambda, V domains shown, fully human IgG2 lambda, Campaign 2) VH: QVQLVQSGAEVKKPGASVKVSCKASGYTFTDYYMNWVRQAPGQGLEWMGWINPNSGGTKYAQKFQGRVTMTRDTSIRTAYMELSRLRSDDTAVYYCSREYGGNSDWFDPWGQGTLVTVSS VL: QSVLTQPPSVSGAPGQRVTISCTGSSSNIGAGYDVHWYQQLPGTAPKLLIYGNSNRPSGVPDRFSGSKSGTSASLAITGLQAEDEADYYCQSYDNRLSDSVVIGGGTKLTVQG

>  <value-observed>
40 to 100%

$$$$
